This section presents binders with their documented IC50 ratio (test:hBP) values.
# tested_system: Aβ1-42 fibrils (human)
# Sequence (peptide, as listed by the source): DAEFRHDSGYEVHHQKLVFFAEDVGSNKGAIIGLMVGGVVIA
# experiment_description: competition ELISA; plate coated with fibril Aβ42; competitor hBP-biotin; IC50 of test divided by IC50 of hBP
Please give only the number in your answer, with no unit.

# binder h2727 (antibody, V domains shown) VH: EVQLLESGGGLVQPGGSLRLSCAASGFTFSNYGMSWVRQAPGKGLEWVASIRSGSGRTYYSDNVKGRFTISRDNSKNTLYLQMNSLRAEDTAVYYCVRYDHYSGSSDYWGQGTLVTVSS VL: DVVMTQSPLSLPVTPGEPASISCKSSQSLLDYDGKTYLNWLLQKPGQSPQRLIYKVSNRDSGVPDRFSGSGSGTDFTLKISRVEAEDVGVYYCWQGTHFPRSFGQGTKVEIK ; its IC50 ratio (test:hBP) = 3.06

# binder h4917G (antibody, V domains shown) VH: EVQLLESGGGLVQPGGSLRLSCAASGFTFSNFGMSWVRQAPGKGLEWVASVRSGGGRTYYSDNVKGRFTISRDNSKNTLYLQMNSLRAEDTAVYYCVRYDHYSGTSDYWGQGTLVTVSS VL: DVVMTQSPLSLPVTLGEPASISCKSSQSLLDSDGKTYLNWLLQKPGQSPQRLIYKVTNRESGVPDRFSGSGSGTDFTLKISRVEAEDVGVYYCWQGTHFPRSFGQGTKVEIK ; its IC50 ratio (test:hBP) = 2.69

***
# binder h3818G (antibody, V domains shown) VH: EVQLLESGGGLVQPGGSLRLSCAASGFTFANYGMSWVRQAPGKGLEWVASVRSGGSRTYYSDNVKGRFTISRDNSKNTLYLQMNSLRAEDTAVYYCVRYDHYSGSSDYWGQGTLVTVSS VL: DVVMTQSPLSLPVTLGEPASISCKSSQSLMDTDGKTYLNWLLQKPGQSPQRLIYKVSNRESGVPDRFSGSGSGTDFTLKISRVEAEDVGVYYCWQGTHFPRTFGQGTKVEIK ; its IC50 ratio (test:hBP) = 1.18
